Assay: Removal of aglycones through adsorption by PVPP, analysed by RP-HPLC
Assay type: physicochemical
Details: ratio of compounds removed by PVPP over that in the untreated samples
QUANTITY: removal by PVPP (efficiency) (%)
Give your result in % as a bare value.

COMPOUND	removal by PVPP (efficiency) / %
O=c1c(-c2ccc(O)cc2)coc2cc(O)ccc12	81
Oc1ccc(/C=C/c2cc(O)cc(O)c2)cc1 [trans-resveratrol]	100
O=c1ccc2cc(O)c(O)cc2o1	70

Short answer for COc1cc2ccc(=O)oc2cc1O : removal by PVPP (efficiency) was 92
